From: patent US9868766B2

TESTED_TARGET: human Oxytocin (OTR) receptor (Homo sapiens, UniProt P30559)
Construct: expressed in transfected cells
Sequence (P30559 whole entry): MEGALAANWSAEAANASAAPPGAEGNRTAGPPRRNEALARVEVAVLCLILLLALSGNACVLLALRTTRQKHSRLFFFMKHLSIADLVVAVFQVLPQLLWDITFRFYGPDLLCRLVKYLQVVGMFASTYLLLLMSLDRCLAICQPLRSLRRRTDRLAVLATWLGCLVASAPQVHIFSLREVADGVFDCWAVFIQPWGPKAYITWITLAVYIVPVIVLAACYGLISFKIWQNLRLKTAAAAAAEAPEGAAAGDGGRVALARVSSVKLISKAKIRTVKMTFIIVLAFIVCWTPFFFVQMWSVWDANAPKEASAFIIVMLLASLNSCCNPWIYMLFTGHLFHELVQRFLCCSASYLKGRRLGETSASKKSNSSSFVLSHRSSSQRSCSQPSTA
ASSAY_METHOD_TEXT: Calcium flux assay (FLIPR), agonist mode, CHO cells expressing human OTR
Assay type: cell-based
TEST_SETTINGS: maximum response normalized to endogenous full agonist = 100%
Positions of bridges follow the written chain, without caps; N, C: chain ends. Non-standard residues stand in square brackets, D forms with d. Residues, ends and D or L forms follow the SMILES beside them. Phe(4-NH2) = Nc1ccc(C[C@H](N)C(=O)O)cc1; hLeu = CC(C)CC[C@H](N)C(=O)O; β3hP = O=C(O)C[C@@H]1CCCN1; Sar = CNCC(=O)O
ASSAY_METRIC: hOT efficacy (%)
Give the value in % but do not write % after it.

Below, each entry is followed by its recorded hOT efficacy (%) result.
CC[C@H](C)[C@@H]1NC(=O)[C@H](Cc2ccc(N)cc2)NC(=O)CNC(=O)CC[C@@H](C(=O)N2CCC[C@H]2C(=O)N[C@@H](CC(C)C)C(=O)NCC(N)=O)NC(=O)[C@H](CC(N)=O)NC(=O)[C@H](CCC(N)=O)NC1=O [Example 10] (G[Phe(4-NH2)]IQNEPLG-NH2; lactam N-6) = 91
CC[C@H](C)[C@@H]1NC(=O)[C@H](Cc2ccc(O)cc2)NC(=O)CNC(=O)CC[C@@H](C(=O)N2CCC[C@H]2C(=O)N[C@H](CC(C)C)C(=O)NCC(N)=O)NC(=O)[C@H](CC(N)=O)NC(=O)[C@H](CCC(N)=O)NC1=O [Example 15] (GYIQNEP[dL]G-NH2; lactam N-6) = 102
CC[C@H](C)[C@@H]1NC(=O)[C@H](Cc2ccc(O)cc2)NC(=O)CNC(=O)CC[C@@H](C(=O)N(C)CC(=O)N[C@@H](Cc2ccc(N)cc2)C(=O)NCC(N)=O)NC(=O)[C@H](CC(N)=O)NC(=O)[C@H](CCC(N)=O)NC1=O [Example 1] (GYIQNE[Sar][Phe(4-NH2)]G-NH2; lactam N-6) = 111
CC[C@H](C)[C@@H]1NC(=O)[C@H](Cc2ccc(O)cc2)NC(=O)CNC(=O)CC[C@@H](C(=O)N(C)CC(=O)N[C@@H](CCC(C)C)C(=O)NCC(N)=O)NC(=O)[C@H](CC(N)=O)NC(=O)[C@H](CCC(N)=O)NC1=O [Example 43] (GYIQNE[Sar][hLeu]G-NH2; lactam N-6) = 124

Query CC[C@H](C)[C@@H]1NC(=O)[C@H](Cc2ccc(O)cc2)NC(=O)CNC(=O)CC[C@@H](C(=O)NCC(=O)N[C@@H](CC(C)C)C(=O)NCC(N)=O)NC(=O)[C@H](CC(N)=O)NC(=O)[C@H](CCC(N)=O)NC1=O [Example 6] (GYIQNEGLG-NH2; lactam N-6) yields hOT efficacy (%) of 95

Query CC[C@H](C)[C@@H]1NC(=O)[C@H](Cc2ccc(O)cc2)NC(=O)CNC(=O)CC[C@@H](C(=O)N2CCC[C@H]2CC(=O)N[C@@H](CC(C)C)C(=O)NCC(N)=O)NC(=O)[C@H](CC(N)=O)NC(=O)[C@H](CCC(N)=O)NC1=O [Example 4] (GYIQNE[β3hP]LG-NH2; lactam N-6) yields hOT efficacy (%) of 102

Query CC[C@H](C)[C@@H]1NC(=O)[C@H](Cc2ccc(O)cc2)NC(=O)CNC(=O)CC[C@@H](C(=O)N(C)CC(=O)N[C@@H](CCC(=O)O)C(=O)NCC(N)=O)NC(=O)[C@H](CC(N)=O)NC(=O)[C@H](CCC(N)=O)NC1=O [Example 29] (GYIQNE[Sar]EG-NH2; lactam N-6) yields hOT efficacy (%) of 130
